- Tested on: HOP-92 NSCLC
- Assay text: NCI tumour cell line growth inhibition, 48 h
GI50 reference
Measure: GI50

• CCOC(=O)N1C/C(=C/c2ccc(Cl)cc2)C(=O)/C(=C/c2ccc(Cl)cc2)C1 = 10.5 µM
• COc1cc(-c2ccc(-c3ccc(C(=N)N)cc3)s2)cc(OC)c1OC = 1.29 µM
• Clc1ccc2c(c1)C(Br)c1cc(Cl)cc(Cl)c1-2 (stereo not drawn) = 12.4 µM
• NCCCOc1cc2ccccc2cc1C(=O)NCCOc1nc2ccccc2cc1C(=O)Nc1ccc(Cl)cc1O = 0.126 µM
• C=C(CNCCc1ccc(O)cc1)[C@@H]1CC[C@]2(CO)CC[C@]3(C)[C@H](CC[C@@H]4[C@@]5(C)CCC(NCCc6ccc(O)cc6)C(C)(C)[C@@H]5CC[C@]43C)[C@@H]12 (stereo partly drawn) = 0.667 µM
• C=C1C(=O)O[C@H]2[C@H]1CC/C(COC(=O)/C=C/C(=O)NCc1ccc(Cn3c(=O)sn(-c4ccccc4)c3=O)cc1)=C\CC[C@@]1(C)O[C@@H]21 = 1.85 µM
• Cn1ncc(NC(=O)c2nc(-c3c(F)cccc3F)sc2N)c1N1CC[C@@H](N)[C@H](F)CC1 = 4.12 µM
• CC(C)=CCC/C(C)=C/CC/C(C)=C/CC/C(C)=C/CSC[C@H](NC(=O)CCCCCN1CCN(C)CC1)C(=O)NC1CCCCC1 = 2.13 µM

###

- Test system: SF-539 CNS
- Assay text: NCI tumour cell line growth inhibition, 48 h
Measure: TGI (µM)

- COc1cc(/C=N/n2c(-c3ccccc3)n[nH]c2=O)cc(OC)c1OC: 39.1
- O=[N+]([O-])c1ccc(C2=Nn3c(nnc3-c3ccccc3)SC2)o1: 39
- CN(C)CCCNC(=O)c1cc2/c(=C\c3ccc(N(C)C)cc3)c3ccccc3n2[n+]1C: 39.4
- COc1cc2c(cc1OCCCCCn1c(-c3ccc(OCc4ccccc4)cc3)nc3cc(N4CCOCC4)ccc31)N=C[C@@H]1CCCN1C2=O: 5.41
- O=C([O-])c1cc(I)cc(I)c1[OH2+].O=C([O-])c1cc(I)cc(I)c1[OH2+].[Mn+2]: 60
- O/N=C1/C(=C/c2ccc(Cl)c(Cl)c2)CCCC1C(NO)c1ccc(Cl)c(Cl)c1 (stereo not given): 33.2
- O=C(Nc1nc(-c2ccc(Cl)cc2)cs1)c1cc(-c2ccc(Br)cc2)nc2ccc(Cl)cc12: 10.4
- O=C(NN1C(=O)C(Cl)C1c1ccc(O)cc1)c1ccccc1O (stereo not given): 38.5
- NCCCOc1cc2ccccc2cc1C(=O)NCCOc1nc2ccccc2cc1C(=O)Nc1ccc(Cl)cc1O: 2.34
- COc1cc2c3c(n(CCCNCCNCCN)c(=O)c2cc1OC)-c1cc2c(cc1C3=O)OCO2: 3.21
- CS(=O)(=O)O[C@H]1C(=O)N(c2cc3c4ccccc4ccc3c3ccccc23)[C@@H]1c1ccccc1: 1.76
- CCC[CH2][Sn]1([CH2]CCC)[O]C(=O)c2cccc(C)c2[O]1: 1.91

###

- System: HCT-116 colon
- Assay text: NCI tumour cell line growth inhibition, 48 h; in the data active means GI50 below about 0.43 µM; inactive means the rest
Labels: t (active), f (inactive)

- CC1(C)C(N(O)C(=O)Nc2ccc(Cl)cc2)N(c2ccc(Cl)cc2)C(=O)N1CC(=O)N/N=C/C=C/c1ccc([N+](=O)[O-])o1 (stereo not drawn): f
- COc1ccc(/C=C/C(=O)c2cc3c(N)c(C(=O)Nc4cccc(Cl)c4C)sc3nc2C)cc1: t
- CN(C)c1cc[n+](/C(NS(=O)(=O)c2cc(C(=O)Nc3ccc(Cl)cc3)c(Cl)cc2[S-])=C(\C#N)C(=O)c2ccccc2)cc1: f
- O=C1Nc2ccccc2/C1=C\c1c(Cl)nc2sccn12: f
- C#CCn1cnc2cnc(Nc3cccc(NC(=O)CCl)c3)nc21: f
- [N-]=[N+]=NCCCn1c2c(c3cc4c(cc3c1=O)OCO4)C(=O)c1ccccc1-2: f
- O=C(COc1nc2ccccc2nc1-c1ccccc1)Nc1ccc(Cl)cc1: f
- Cn1ncc(NC(=O)c2nc(-c3c(F)cccc3F)sc2N)c1N1CC[C@@H](N)[C@H](F)CC1: f
- Nc1nonc1C(=Nc1ccc(F)c(Cl)c1)NO: f
- CNC(=O)NCC1OC(n2cnc3c(NC(=O)Nc4ccccc4)ncnc32)C(O[Si](C)(C)C(C)(C)C)C1CC(=O)N(C)OC (stereo not drawn): f
- O=C(Nc1ccc(OCc2nnc(-c3ccc(Cl)cc3)o2)c(F)c1)c1ccc(Cl)c(C(F)(F)F)c1: f
- CCC[CH2][Sn]1([CH2]CCC)[O]C(=O)c2cccc(C)c2[O]1: f
- O=C(Nc1nc(-c2ccc(Cl)cc2)cs1)c1cc(-c2ccc(Br)cc2)nc2ccc(Cl)cc12: f
- Cn1ccc(=O)c2c(O)c3ccccc3c(O)c21: f
- O=C1C=CC(=O)c2cc3cc(CO)ccc3cc21: f
- c1cc2c(s1)SSSSS2: f
- COc1ccc(-c2cc(-c3ccccc3)nc(SCCCC(=O)NO)n2)cc1OC: f
- CCO/C=N/C1=C(C#N)C(c2ccc(OC)cc2)c2sc3c(F)cccc3c2O1 (stereo not drawn): f

###

- System: HOP-92 NSCLC
- Assay text: NCI tumour cell line growth inhibition, 48 h
TGI reference
Measure: TGI

• CN(C)CCCNC(=O)c1cc2/c(=C\c3ccc(N(C)C)cc3)c3ccccc3n2[n+]1C = 56.4 µM
• CC(C)OC(=O)C1=C2c3ncccc3C(=O)N2[C@@H](Cl)[C@H](Cl)[C@H]1Cl = > 100 µM
• c1coc(C2=Nc3cccc4cccc(c34)N2)c1 = 60.5 µM
• CC#CC#C/C=C1/O[C@]2(CCC(OC(=O)CC(C)C)CO2)[C@@H]2O[C@H]12 (stereo partly drawn) = 66 µM
• COC(=O)/C=C/C1C2C3(CCC(C)C12C)OCCS3 (stereo not drawn) = > 100 µM
• CNCCCCN(C)/[N+]([O-])=N\O = > 100 µM
• C=CCN1CCN([C@H](c2ccc(C(=O)N(CC)CC)cc2)c2cccc(OC)c2)CC1 = > 25 µM
• O=C1C(c2c(O)[nH]c3ccc([N+](=O)[O-])cc23)=Nc2ccccc21 = > 100 µM

###

- System: PC-3 prostate
- Assay text: NCI tumour cell line growth inhibition, 48 h
GI50 reference
Measure: GI50

- C=C(CNCCc1ccc(O)cc1)[C@@H]1CC[C@]2(CO)CC[C@]3(C)[C@H](CC[C@@H]4[C@@]5(C)CCC(NCCc6ccc(O)cc6)C(C)(C)[C@@H]5CC[C@]43C)[C@@H]12 (stereo partly drawn): 0.884 µM
- Clc1ccc(OCc2nn3c(CCCCc4nnc5sc(COc6ccc(Cl)cc6Cl)nn45)nnc3s2)c(Cl)c1: 47.8 µM
- Nc1nonc1C(=Nc1ccc(F)c(Cl)c1)NO: 42.4 µM
- CC1(C)C(N(O)C(=O)Nc2ccc(Cl)cc2)N(c2ccc(Cl)cc2)C(=O)N1CC(=O)N/N=C/C=C/c1ccc([N+](=O)[O-])o1 (stereo not drawn): 0.679 µM
- CC1(C)CN(c2cc(C(F)(F)F)cc3cncn23)CCC12NC(=O)NC2=O (stereo not drawn): 24.4 µM
- COc1cc2c(cc1I)-c1c(cc(OC)c(OC)c1OC)CC[C@@H]2NC(C)=O: 0.464 µM
- C=C1C(=O)O[C@H]2[C@H]1CC/C(COC(=O)/C=C/C(=O)NCc1ccc(Cn3c(=O)sn(-c4ccccc4)c3=O)cc1)=C\CC[C@@]1(C)O[C@@H]21: 2.84 µM
- Cn1ncc(NC(=O)c2nc(-c3c(F)cccc3F)sc2N)c1N1CC[C@@H](N)[C@H](F)CC1: 3.6 µM

###

- Tested on: 786-0 renal
- Assay text: NCI tumour cell line growth inhibition, 48 h; in the data active = GI50 below about 0.43 µM; inactive = the rest
Labels: t for active, f for inactive

* O=C(Nc1nc(-c2ccc(Cl)cc2)cs1)c1cc(-c2ccc(Br)cc2)nc2ccc(Cl)cc12 | f
* CCC[CH2][Sn]1([CH2]CCC)[O]C(=O)c2cccc(C)c2[O]1 | f
* COc1cc2c(cc1OCCCCCn1c(-c3ccc(OCc4ccccc4)cc3)nc3cc(N4CCOCC4)ccc31)N=C[C@@H]1CCCN1C2=O | f
* COc1cc2ccnc(C=O)c2cc1OC | f
* CCn1c(=O)c(Oc2ccc(F)cc2F)cc2cnc(NC3CCOCC3)nc21 | f
* O=C1C=CC(=O)c2cc3cc(CO)ccc3cc21 | f
* C#CCn1cnc2cnc(Nc3cccc(NC(=O)CCl)c3)nc21 | f
* COc1ccc(CC(C)=C(c2ccc(OCCN3CCCCCC3)cc2)c2ccc(OCCN3CCCCCC3)cc2)cc1 | t
* c1ccc2cc(C[n+]3ccn(CCCCCCCCCCCCn4cc[n+](Cc5ccc6ccccc6c5)c4)c3)ccc2c1 | f
* Nc1nonc1C(=Nc1ccc(F)c(Cl)c1)NO | f
* O=C(COc1nc2ccccc2nc1-c1ccccc1)Nc1ccc(Cl)cc1 | f

The origin of these recorded values is PubChem BioAssay (NCI).
